Each recorded value in this set is attributed to ChEMBL document CHEMBL4152370.

# target-of-assay: Receptor-type tyrosine-protein phosphatase epsilon (Homo sapiens, UniProt P23469)
# Sequence (P23469 whole entry): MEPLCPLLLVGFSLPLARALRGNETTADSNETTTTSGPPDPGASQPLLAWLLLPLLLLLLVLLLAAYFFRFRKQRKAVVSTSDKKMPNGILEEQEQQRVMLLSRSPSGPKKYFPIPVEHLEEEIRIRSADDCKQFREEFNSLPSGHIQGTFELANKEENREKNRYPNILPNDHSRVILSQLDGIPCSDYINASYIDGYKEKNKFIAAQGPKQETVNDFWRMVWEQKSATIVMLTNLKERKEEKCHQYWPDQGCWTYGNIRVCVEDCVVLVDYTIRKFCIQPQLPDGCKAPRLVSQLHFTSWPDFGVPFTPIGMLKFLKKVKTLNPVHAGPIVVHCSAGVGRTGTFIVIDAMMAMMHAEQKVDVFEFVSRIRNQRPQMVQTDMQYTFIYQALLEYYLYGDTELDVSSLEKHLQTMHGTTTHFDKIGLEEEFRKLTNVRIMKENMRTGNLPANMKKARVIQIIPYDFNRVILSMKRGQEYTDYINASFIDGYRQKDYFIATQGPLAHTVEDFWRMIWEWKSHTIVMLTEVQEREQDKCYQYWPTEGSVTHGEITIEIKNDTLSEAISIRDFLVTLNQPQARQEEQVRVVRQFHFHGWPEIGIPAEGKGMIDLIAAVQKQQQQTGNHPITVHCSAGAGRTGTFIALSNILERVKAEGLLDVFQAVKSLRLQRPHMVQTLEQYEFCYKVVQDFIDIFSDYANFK
# test-description: Inhibition of recombinant human cytosolic PTPepsilon expressed in Escherichia coli BL21 (DE3) using E527-P-Q-pY530-Q-P-G-E-N-L536 as substrate after 60 mins by malachite green assay
experimental-endpoint: IC50 (µM)

# compound, units-label, IC50
measured = [
    ("COc1ccccc1OCC(=O)Nc1nnc(COc2ccccc2)s1", "µM", 3.7),
    ("Cc1ccc(OCc2nnc(NC(=O)Nc3ccc(F)c(Cl)c3)s2)c(C)c1", "µM", 1.86),
    ("O=C(COc1ccc2c(c1)OCO2)Nc1nnc(COc2ccc(Cl)cc2)s1", "µM", 2.01),
]

P: Cc1ccc(NC(=O)Nc2nnc(COc3ccc(C)cc3C)s2)cc1
Q: CCC(C)c1ccc(OCc2nnc(NC(=O)Nc3ccccc3OC)s2)cc1 (stereo not given)
Lookup: Of P and Q , whose reported IC50 is numerically smaller? Identify your selection by its label.
Found: P
(P: 2.47 µM, Q: 4.17 µM)
